Tested on: SF-539 CNS
TEST: NCI-60 one-dose screen, 48 h
SETUP_CONDITIONS: 10 µM unless noted
Description: Cells are grown in 96 well plates and exposed to the test compound for 48 hours. Compounds are tested at a single concentration, which is 10^-5 M for most compounds. The reported endpoint is percent growth (GI% or GIPRCNT), where numbers from 0 - 100% represent growth inhibition, and numbers from -100% - 0 represent cell death. For example, a value of 40 represents 60% growth inhibition. A value of 0 means no net growth occurred over the course of the experiment. […]
Compounds without any hit were thinned out: in the full panel of roughly 83,000, 20% have a hit. The source made the active and inactive calls. The calls were made as follows: active = growth percent below 10; inactive = the rest.
Possible outcomes: 1 (yes) = active, 0 (no) = inactive

- Nc1ccc(F)cc1F: 0 (no)
- NNC(=O)N/N=C1\C(=O)N(c2nccs2)C(=O)C(=O)C1c1nc2ccccc2s1 (configuration not stated): 0 (no)
- CN=S(=O)(OCCCCCOS(=O)(=NC)c1ccc(C)cc1)c1ccc(C)cc1 (configuration not stated): 0 (no)
- Cc1ccc(C)c(CN(C)C)c1O: 0 (no)
- C/C(=N\O)c1ccccn1: 0 (no)
- S=CN1CCCCC1: 0 (no)
- c1ccc2c(NCCCN3CCN(CCCNc4c5ccccc5nc5ccccc45)CC3)c3ccccc3nc2c1: 1 (yes)

Cited source for all entries: PubChem BioAssay (NCI)
